Data origin: patent US8362000B2

targetSystem: mutant MGL (Homo sapiens, UniProt Q99685, L169S/L176S)
Sequence (Q99685 whole entry L169S/L176S): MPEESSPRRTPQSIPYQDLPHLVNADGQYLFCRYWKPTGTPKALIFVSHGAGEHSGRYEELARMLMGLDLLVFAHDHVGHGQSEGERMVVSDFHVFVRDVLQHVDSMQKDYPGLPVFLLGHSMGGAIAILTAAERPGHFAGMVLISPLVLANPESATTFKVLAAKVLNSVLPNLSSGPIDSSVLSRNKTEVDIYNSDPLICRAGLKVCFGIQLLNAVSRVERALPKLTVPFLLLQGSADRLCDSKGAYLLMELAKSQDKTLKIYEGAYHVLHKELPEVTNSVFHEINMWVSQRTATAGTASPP
test: MGL ThermoFluor assay - mutant
Assay type: binding
conditionDetails: ThermoFluor, compound concentration measured by qNMR, read-out: MGL mutant ThermoFluor qKd (μM) (using qNMR conc.)
endpointName: Kd (µM)

| compound | Kd / µM |
| --- | --- |
| O=C(c1ccc(-c2cccc(C(F)(F)F)c2)cc1)N1CC(N2CCN(C(=O)c3ccno3)CC2)C1 | 0.053 |
| O=C(c1ccccc1)N1CCN(C2CN(C(=O)c3ccc4c(ccn4-c4cc(F)c(F)c(F)c4)c3)C2)CC1 | 0.059 |

(A) O=C(c1ccc(-c2cccc(C(F)(F)F)c2)cc1)N1CC(N2CCN(C(=O)C3CC3(F)F)CC2)C1 (centres unmarked)
(B) O=C(c1ccc2c(ccn2-c2ccc(Cl)c(F)c2)c1)N1CC(N2CCN(C(=O)c3nccs3)CC2)C1
# input // which entry reports the smaller Kd, A or B ? Use the label to indicate which entry you chose.
# output B
(B: 0.002 µM, A: 0.046 µM)

* * *

targetSystem: mutant MGL (Homo sapiens, UniProt Q99685, L169S/L176S)
test: MGL ThermoFluor assay - mutant
Format: binding
conditionDetails: ThermoFluor concentration-response, read-out: MGL mutant ThermoFluor Kd
pKd: −log10 of the molar value.
endpointName: pKd

| compound | pKd |
| --- | --- |
| O=C(c1ccc(S(=O)(=O)c2cccc(C(F)(F)F)c2)cc1)N1CC(N2CCN(C(=O)c3nccs3)CC2)C1 | 7.60 |

(P) O=C(c1ccc2c(c1)Sc1ccccc1O2)N1CC(N2CCN(C(=O)c3ccc[nH]3)CC2)C1
(Q) O=C(c1ccc(CSc2cccc(Cl)c2)cc1)N1CC(N2CCN(C(=O)c3nccs3)CC2)C1
# input // which entry reports the smaller pKd, P or Q ? Use the label to indicate which entry you chose.
# output P

* * *

targetSystem: MGL (Rattus norvegicus, UniProt Q8R431)
Construct: one g rat brain was homogenized using a Polytron homogenizer; from tissue; host or cells: rat brain homogenate
Sequence (Q8R431 whole entry): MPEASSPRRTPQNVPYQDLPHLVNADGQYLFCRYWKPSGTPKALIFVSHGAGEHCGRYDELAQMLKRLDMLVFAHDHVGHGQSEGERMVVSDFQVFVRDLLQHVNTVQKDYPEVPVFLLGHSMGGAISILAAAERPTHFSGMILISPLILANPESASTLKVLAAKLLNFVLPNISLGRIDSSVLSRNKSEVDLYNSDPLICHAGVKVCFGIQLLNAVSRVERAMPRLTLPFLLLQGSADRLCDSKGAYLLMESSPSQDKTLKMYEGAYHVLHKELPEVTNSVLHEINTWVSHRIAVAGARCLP
test: 2-AG accumulation assay in rat brain homogenate
Type: biochemical
conditionDetails: rat brain homogenate; compound 1 μM; 2-AG accumulation as percent of vehicle; read-out: Rat Brain 2AG % VehCntrl (%) @ 1 μM
endpointName: 2-AG accumulation, % of vehicle control at 1 µM (%)

| compound | recordedMeasurement |
| --- | --- |
| Cc1ccc(-n2ccc3cc(C(=O)N4CC(N5CCN(C(=O)c6ccc[nH]6)CC5)C4)ccc32)cn1 [Cpd 1181] | 288 |

(I) O=C(c1ccccc1)N1CCN(C2CN(C(=O)c3ccc(Cc4cccc(C(F)(F)F)c4)cc3)C2)CC1 [Cpd 547]
(II) Cc1cc(C(=O)N2CC(N3CCN(C(=O)c4ccccc4)CC3)C2)ccc1-c1cccc(C(F)(F)F)c1 [Cpd 243]
# input // which entry reports the smaller 2-AG accumulation, % of vehicle control at 1 µM, I or II ? Use the label to indicate which entry you chose.
# output II

(A) Cc1cc(C(=O)N2CC(N3CCN(C(=O)c4nccs4)CC3)C2)sc1-c1ccc(C(F)(F)F)cc1 [Cpd 1352]
(B) O=C(c1ccc2c(c1)CCCN2Cc1ccccc1)N1CC(N2CCN(C(=O)c3nccs3)CC2)C1 [Cpd 370]
# input // which entry reports the smaller 2-AG accumulation, % of vehicle control at 1 µM, A or B ? Use the label to indicate which entry you chose.
# output A
(A: 548%, B: 888%)

* * *

targetSystem: mutant MGL (Homo sapiens, UniProt Q99685, L169S/L176S)
test: MGL ThermoFluor assay - mutant
Format: binding
conditionDetails: ThermoFluor concentration-response, read-out: MGL mutant ThermoFluor Kd
endpointName: Kd (nM)

| compound | endpointName | recordedMeasurement |
| --- | --- | --- |
| O=C(c1ccc2nc(-c3ccccc3)sc2c1)N1CC(N2CCN(C(=O)c3nccs3)CC2)C1 [Cpd 1125] | Kd | 37 |

(I) Cc1c(C(=O)N2CCN(C3CN(C(=O)c4cscn4)C3)CC2)sc2cc(C(F)(F)F)ccc12 [Cpd 705]
(II) O=C(c1ccc(Oc2cccc(C(F)(F)F)c2)nc1)N1CC(N2CCN(C(=O)c3nccs3)CC2)C1 [Cpd 660]
(III) O=C(c1cscn1)N1CCN(C2CN(C(=O)c3sc4cc(Cl)ccc4c3C(F)(F)F)C2)CC1 [Cpd 699]
(IV) Cc1nc(COc2ccc(Cl)cc2)sc1C(=O)N1CC(N2CCN(C(=O)c3ccccc3)CC2)C1 [Cpd 558]
(V) Cc1c(C(=O)N2CC(N3CCN(C(=O)c4nccs4)CC3)C2)oc2ccc(F)cc12 [Cpd 751]
# input Put the compounds in ascending order of Kd. # list labels per requested ordering
# output I, III, II, IV, V

(P) O=C(c1ccc2c(c1)C1C=CCC1C(c1cccc(Cl)c1)N2)N1CC(N2CCN(C(=O)c3nccs3)CC2)C1 (stereo not shown) [Cpd 667]
(Q) O=C(c1ccccc1)N1CCN(C2CN(C(=O)c3ccc(-c4ccccc4Cl)cc3)C2)CC1 [Cpd 36]
# input // which entry reports the smaller Kd, P or Q ? Use the label to indicate which entry you chose.
# output P
(P: 13 nM, Q: 37 nM)

(A) O=C(c1cccc(-c2cccc(C(F)(F)F)c2)c1)N1CC(N2CCN(C(=O)c3cscn3)CC2)C1 [Cpd 1188]
(B) O=C(c1ccc2c(c1)C(Cc1cccc(C(F)(F)F)c1)(Cc1cccc(C(F)(F)F)c1)C(=O)N2Cc1cccc(C(F)(F)F)c1)N1CC(N2CCN(C(=O)c3nccs3)CC2)C1 [Cpd 1430]
# input Which value of Kd is numerically greater: that of A or that of B ? Use the label to indicate which entry you chose.
# output B

* * *

targetSystem: mutant MGL (Homo sapiens, UniProt Q99685, L169S/L176S)
test: MGL ThermoFluor assay - mutant
Type: binding
conditionDetails: compound concentration measured by qNMR, read-out: MGL mutant ThermoFluor qKd (using qNMR conc.)
pKd: −log10 of the molar value.
endpointName: pKd

(A) O=C(c1nccs1)N1CCN(C2CN(C(=O)c3ccc4c(ccn4-c4ccc(F)cc4)c3Cl)C2)CC1
(B) O=C(c1cccnc1)c1c[nH]c2cc(C(=O)N3CC(N4CCN(C(=O)c5nccs5)CC4)C3)ccc12
(C) Cc1nc2cc(C(=O)N3CC(N4CCN(C(=O)c5nccs5)CC4)C3)ccc2n1-c1ccc(F)c(F)c1
(D) O=C(c1ccc(OCc2ccc3ccccc3n2)cc1)N1CC(N2CCN(C(=O)C(F)(F)F)CC2)C1
(E) O=C(c1cnc2c(ccn2Cc2ccc(F)cc2)c1)N1CC(N2CCN(C(=O)c3nccs3)CC2)C1
# input # sort list by recorded pKd, greatest to least # list labels per requested ordering
# output A, C, E, B, D
(A: 8.52, C: 7.74, E: 7.26, B: 6.05, D: 5.84)

(A) Cn1cc(Cc2ccc(F)cc2)c2ccc(C(=O)N3CC(N4CCN(C(=O)c5ccc[nH]5)CC4)C3)cc21
(B) O=C(c1ccc[nH]1)N1CCN(C2CN(C(=O)c3nn(-c4ccc(Cl)cc4Cl)c4c3CCC/C4=C\c3ccc(Cl)cc3)C2)CC1
(C) O=C(c1ccc(Oc2ccccn2)cc1)N1CC(N2CCN(C(=O)C(F)(F)F)CC2)C1
# input Put the compounds in ascending order of pKd. # list labels per requested ordering
# output C, B, A

* * *

targetSystem: mutant MGL (Homo sapiens, UniProt Q99685, L169S/L176S)
test: MGL ThermoFluor assay - mutant
Type: binding
conditionDetails: ThermoFluor concentration-response, read-out: MGL mutant ThermoFluor Kd
pKd: −log10 of the molar value.
endpointName: pKd

Example entries and their recorded answers appear below.
| molecule | pKd |
| --- | --- |
| O=C(c1ccccc1)N1CCN(C2CN(C(=O)c3ccc(Cc4ccc(C(F)(F)F)cc4)cc3)C2)CC1 [Cpd 771] | 7.30 |
| O=C(c1ccccc1)N1CCN(C2CN(C(=O)c3ccc4c(ccn4-c4ncc(F)cn4)c3)C2)CC1 [Cpd 598] | 6.60 |
| COc1cc(C(=O)N2CC(N3CCN(C(=O)c4cscn4)CC3)C2)ccc1Br [Cpd 23] | 5.30 |

(1) O=C(c1ccc(-c2nc(-c3ccccc3)cs2)cc1)N1CC(N2CCN(C(=O)c3nccs3)CC2)C1 [Cpd 1326]
(2) O=C(c1cscn1)N1CC(N2CCN(C(=O)c3ccc(-c4ccccc4)cc3)C(Cc3ccccc3)C2)C1 (stereo not shown) [Cpd 1284]
(3) O=C(c1ccccc1)N1CCN(C2CN(C(=O)c3ccc(N4CCOCC4)cc3)C2)CC1 [Cpd 541]
(4) O=C(c1ccc(OCc2cccc(Cl)c2)cc1)N1CC(N2CCN(C(=O)C(F)(F)F)CC2)C1 [Cpd 958]
# input Put the molecules in ascending order of pKd. # list labels per requested ordering
# output 3, 4, 2, 1

(I) O=C(c1ccccc1)N1CCN(C2CN(C(=O)c3ccc(SCc4cccc(Cl)c4)cc3)C2)CC1 [Cpd 410]
(II) O=C(c1ccc2c(c1)[nH]c(=O)n2C1CCC(F)(F)CC1)N1CC(N2CCN(C(=O)c3nccs3)CC2)C1 [Cpd 932]
(III) Cc1ccc2c(C(F)(F)F)c(C(=O)N3CC(N4CCN(C(=O)c5nccs5)CC4)C3)sc2c1 [Cpd 707]
(IV) O=C(c1ccc(-n2cnc3ccccc32)cc1)N1CCN(C2CN(C(=O)c3ccccc3)C2)CC1 [Cpd 610]
# input Order field: pKd | Direction: descending (largest first) # list labels per requested ordering
# output III, II, I, IV
